# Lookup of reported growth keyed by entry
tested on: MOLT-4 leukemia; test: NCI-60 one-dose screen, 48 h (100 = growth as untreated, 0 = no growth, -100 = all killed); settings: 10 µM unless noted
About 83,000 compounds went through this panel and 20% of them were active in at least one assay; those are over-represented in the sample as a whole. Calls of active or inactive are those of the source. Rule for the calls: active = growth percent below 10; inactive = the rest.

As a guide, the following entries are already answered.
• CCNC(=O)c1[nH]cc(-c2ccc(OC)cc2)c1-c1cc(OC)c(OC)c(OC)c1 = 92% (inactive)
• COc1ccc(-n2cc(-c3cc(OC)c(OC)c(OC)c3)n(C(C)=O)c2=O)cc1 = 103% (inactive)
• CCCNC(=O)Oc1ccc(/C(=C(\C)c2ccccc2)c2ccc(OCCN3CCCCC3)cc2)cc1 = 60.1% (inactive)

Query: Return the recorded growth value; entry: `CC[C@H](C)[C@@H]1NC(=O)[C@H](Cc2ccc(O)cc2)N(C)C(=O)[C@H](Cc2ccccc2)NC(=O)CN(C)C(=O)[C@@H]2CCCN2C(=O)[C@@H](Cc2ccccc2)N(C)C(=O)[C@H](CC(C)C)NC1=O`
Response: 2.71% (active)

Query: Return the recorded growth value; entry: CC1NC(=S)NC(=O)/C1=C/c1cc(=O)oc2c1ccc1ccccc12 (stereo not given)
Response: 88.6% (inactive)

Query: Return the recorded growth value; entry: `COc1ccc(C2=C(c3ccccc3)c3ccc(OC(C)=O)cc3OC2(C)C)cc1`
Response: 4.69% (active)

Query: Return the recorded growth value; entry: `Cn1c(COC(=O)N2CCCCC2)nc2c(N3CCOCC3)nc(-c3ccccc3)nc21`
Response: -5.2% (active)

Query: Return the recorded growth value; entry: `COc1nccnn1`
Response: 106% (inactive)

Query: Return the recorded growth value; entry: `O=C1Nc2ccccc2/C1=C\c1cccc(/C=C2/C(=O)Nc3ccccc32)n1`
Response: -30% (active)

Query: Return the recorded growth value; entry: `CCOC(=O)N1CCN(CCCCl)CC1`
Response: 98.7% (inactive)

Query: Return the recorded growth value; entry: `Nc1nc(SN=Nc2ccc(S(N)(=O)=O)cc2)c2[nH]cnc2n1`
Response: -1.6% (active)

Query: Return the recorded growth value; entry: `NC(=O)c1cccc(-c2ccccc2N2CCCCC2)c1`
Response: 91.1% (inactive)

Query: Return the recorded growth value; entry: `Fc1ccccc1CSc1ncnc2nc[nH]c12`
Response: 92.3% (inactive)

Query: Return the recorded growth value; entry: `CC(=O)c1c(-c2ccc(OC(F)(F)F)cc2)nc2ccccn12`
Response: 118% (inactive)

Where these numbers come from: PubChem BioAssay (NCI)
